study system: Jak2 (Homo sapiens)
Construct: The kinase domain of humanJAK2 was amplified from U937mRNA; His tag (from pFastBac HTc vector) (N); made in house; host or cells: baculovirus; Sf9 insect cells for virus, High Five cells for large-scale production
Sequence (O60674 849-1124 limits assumed): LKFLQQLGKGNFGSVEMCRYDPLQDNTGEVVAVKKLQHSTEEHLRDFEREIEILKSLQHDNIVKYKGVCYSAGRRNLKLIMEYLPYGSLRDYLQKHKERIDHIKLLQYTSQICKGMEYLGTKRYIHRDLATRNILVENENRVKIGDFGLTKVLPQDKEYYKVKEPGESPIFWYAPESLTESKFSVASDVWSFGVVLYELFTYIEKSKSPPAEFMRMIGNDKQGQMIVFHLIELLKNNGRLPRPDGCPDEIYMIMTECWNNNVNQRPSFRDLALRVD
assay explanation: JAK2 kinase domain assay (ELISA or Alphascreen)
Assay type: biochemical
condition parameters: capacity to inhibit 50% of activity at 50 μM; read-out: Jak2 inhibitory activity
Give measured inhibition at 50 µM for each item. Keep answers brief.

Look up and report measured inhibition at 50 µM (Jak2 (Homo sapiens)) for the following compound: C[C@H](Nc1cncc(-n2cnc3cc(NC(=O)[C@@H]4CCCN4C(=O)OC(C)(C)C)ccc32)n1)c1ccccc1
> 50%

Look up and report measured inhibition at 50 µM (Jak2 (Homo sapiens)) for the following compound: C[C@H](Nc1cncc(-n2cnc3ccc(NS(C)(=O)=O)cc32)n1)c1ccccc1
> 50%

Look up and report measured inhibition at 50 µM (Jak2 (Homo sapiens)) for the following compound: Fc1ccc(CNc2cncc(-n3ccnc3)n2)cc1
< 50%

Look up and report measured inhibition at 50 µM (Jak2 (Homo sapiens)) for the following compound: C[C@@H](Nc1cncc(-n2cnc(-c3ccccc3)c2)n1)c1ccccc1
< 50%

Look up and report measured inhibition at 50 µM (Jak2 (Homo sapiens)) for the following compound: CNC(=O)c1ccc2c(c1)ncn2-c1cncc(N[C@@H](C)c2ccccc2)n1
> 50%

Look up and report measured inhibition at 50 µM (Jak2 (Homo sapiens)) for the following compound: C[C@H](Nc1cncc(-n2cnc3cc(C(=O)NCCCN4CCOCC4)ccc32)n1)c1ccccc1
> 50%

Look up and report measured inhibition at 50 µM (Jak2 (Homo sapiens)) for the following compound: C[C@H](Nc1cncc(-n2cnc3cc(NS(=O)(=O)c4ccccc4)ccc32)n1)c1ccccc1
> 50%

Look up and report measured inhibition at 50 µM (Jak2 (Homo sapiens)) for the following compound: C[C@H](Nc1cncc(-n2cnc3ccc(C(N)=O)cc32)n1)c1ccccc1
> 50%

Look up and report measured inhibition at 50 µM (Jak2 (Homo sapiens)) for the following compound: C[C@H](Nc1cncc(-n2cnc3ccncc32)n1)c1ccccc1
> 50%

Look up and report measured inhibition at 50 µM (Jak2 (Homo sapiens)) for the following compound: Cc1nc2ccccc2n1-c1cncc(N[C@@H](C)c2ccccc2)n1
< 50%

Look up and report measured inhibition at 50 µM (Jak2 (Homo sapiens)) for the following compound: CC(=O)Nc1ccc2c(c1)ncn2-c1cncc(N[C@@H](C)c2ccccc2)n1
< 50%

Look up and report measured inhibition at 50 µM (Jak2 (Homo sapiens)) for the following compound: C[C@@H](Nc1cncc(-n2cnc3ncccc32)n1)c1ccccc1
< 50%

Look up and report measured inhibition at 50 µM (Jak2 (Homo sapiens)) for the following compound: CNCCN(C)Cc1ccc2ncn(-c3cncc(NC(C)c4ccc(F)cc4)n3)c2c1 (stereo not shown)
> 50%
